system: SF-295 CNS; test: NCI-60 one-dose screen, 48 h; settings: 10 µM
About 83,000 compounds went through this panel and 20% of them were active in at least one assay; those are over-represented in the sample as a whole. The source made the active and inactive calls. The calls were made as follows: active = growth percent below 10; inactive = the rest.
Pick one and only one: 1 = active, -1 = inactive

[Cl][Hg][c]1ccc(Cl)s1    -1
COc1cc(/C=C/[N+](=O)[O-])cc(Br)c1OC    -1
COC(C(=O)C(O)C(C)O)C1Cc2cc3cc(OC4CC(OC(C)=O)C(OC5CC(O)C(OC)C(C)O5)C(C)O4)cc(O)c3c(O)c2C(=O)C1OC1CC(OC2CC(OC3CC(C)(O)C(OC(=O)C(C)C)C(C)O3)C(O)C(C)O2)C(O)C(C)O1 (stereo unspecified)    1

Q: Just curious, what result did "CC/C(=C/c1ccc(OC)cc1OC)[N+](=O)[O-]" get here?
Result: -1

Q: Just curious, what result did "COc1ccccc1/C=C/[N+](=O)[O-]" get here?
Result: -1

Q: Just curious, what result did COC12C(COC(N)=O)C3=C(C(=O)C(C)=C(N)C3=O)N1CC1C2N1C (stereo unspecified) get here?
Result: -1

Q: Just curious, what result did "[O-][n+]1ccccc1S" get here?
Result: -1

Q: Just curious, what result did COC1CC2C=C(C)/C=C/C=C/C(=O)NC(c3ccccc3)C/C=C/CCC(O)CC(=O)C2=C1O (stereo unspecified) get here?
Result: 1

Q: Just curious, what result did "COc1cc(/C=C(/C)[N+](=O)[O-])ccc1O" get here?
Result: -1

Q: Just curious, what result did "[Cl][Hg][c]1ccc2ccccc2c1" get here?
Result: -1

Q: Just curious, what result did "CC(=O)[O][Hg][c]1c(C)c(C)cc(C)c1C" get here?
Result: -1

Q: Just curious, what result did COC(=O)C1C(O)C(C)C(O)C(C)/C=C\C=C(C)C(=O)Nc2c(C)c(OC(C)=O)c3c(c2O)C(=O)C(C)=C2OCOC(=C23)C(C)=CC(C)(O)C(O)C(C)C1O (stereo unspecified) get here?
Result: -1

Q: Just curious, what result did "O=C1C=Cc2ccccc2C1=O" get here?
Result: -1

Q: Just curious, what result did "ClCc1ccc2ccccc2n1" get here?
Result: -1

Q: Just curious, what result did "S=C=NCCc1ccccc1" get here?
Result: -1

Q: Just curious, what result did "NC(=O)c1cc([N+](=O)[O-])c(Cl)c([N+](=O)[O-])c1Cl" get here?
Result: -1

Q: Just curious, what result did "O=[N+]([O-])/C=C/c1ccc(Cl)cc1[N+](=O)[O-]" get here?
Result: -1

Q: Just curious, what result did "COc1cc(/C=C/[N+](=O)[O-])cc(OC)c1OC" get here?
Result: -1
